- SYSTEM_UNDER_TEST: Ubiquitin carboxyl-terminal hydrolase 1 (Homo sapiens) (UniProt O94782)
- Sequence (O94782 whole entry, looked up): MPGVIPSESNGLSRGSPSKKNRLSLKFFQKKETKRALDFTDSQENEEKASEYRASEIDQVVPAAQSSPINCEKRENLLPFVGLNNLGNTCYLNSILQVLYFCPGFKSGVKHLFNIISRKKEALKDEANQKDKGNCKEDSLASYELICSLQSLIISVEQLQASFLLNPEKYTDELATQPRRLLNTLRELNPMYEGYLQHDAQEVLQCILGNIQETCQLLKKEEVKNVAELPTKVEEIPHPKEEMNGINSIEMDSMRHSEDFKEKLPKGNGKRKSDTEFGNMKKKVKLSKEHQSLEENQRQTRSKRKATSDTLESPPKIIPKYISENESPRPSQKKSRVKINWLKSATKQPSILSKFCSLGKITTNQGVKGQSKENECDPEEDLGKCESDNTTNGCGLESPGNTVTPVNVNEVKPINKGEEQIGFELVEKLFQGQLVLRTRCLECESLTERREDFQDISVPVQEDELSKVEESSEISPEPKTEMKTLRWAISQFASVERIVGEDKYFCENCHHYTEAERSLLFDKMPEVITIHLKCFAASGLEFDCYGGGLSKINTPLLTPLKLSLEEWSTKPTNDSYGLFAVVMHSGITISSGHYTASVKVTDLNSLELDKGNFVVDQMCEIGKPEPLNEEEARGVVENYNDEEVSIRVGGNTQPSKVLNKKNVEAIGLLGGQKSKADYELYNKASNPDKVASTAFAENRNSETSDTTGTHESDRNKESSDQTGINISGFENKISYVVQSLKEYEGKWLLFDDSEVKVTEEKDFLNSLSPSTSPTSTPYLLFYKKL
- EXPERIMENT_SUMMARY: Inhibitors of USP1/UAF1: Pilot qHTS (AID 504865); note: nearly all actives have a fitted effect of over 35% in size
- CONDITION_DESCRIPTION: purified USP1/UAF1, Ub-rhodamine cleavage fluorescence; series mostly up to 114 µM
Inconclusive results are not listed. Active and inactive are the calls of the source. Calls come from the whole dose curve; as a rule, active = well fitted inhibition curve with a large enough effect; inconclusive = small, poorly fitted or top-dose-only effect; inactive = flat fitted curve, though single readings scatter.
Entry note: the call must match one of T for active, F for inactive

Challenge: Could you kindly confirm the outcome this assay logged for CN1CCN2c3ncccc3Cc3ccccc3C2C1 (stereo unspecified) ?
Response given: F

Challenge: Could you kindly confirm the outcome this assay logged for CC(NCCc1ccc(O)cc1)C(O)c1ccc(O)cc1 (stereo unspecified) ?
Response given: F

Challenge: Could you kindly confirm the outcome this assay logged for CC1C(=O)OC2C(O)C34C5CC(C(C)(C)C)C36C(OC(=O)C6O)OC4(C(=O)O5)C12O (stereo unspecified) ?
Response given: F

Challenge: Could you kindly confirm the outcome this assay logged for "CCCCC[C@H](O)C=C[C@H]1[C@H](O)CC(=O)[C@H]1CCCCCCC(=O)O" ?
Response given: F

Challenge: Could you kindly confirm the outcome this assay logged for "COc1cc2c(cc1OC)CC(=O)N(CCCN(C)C[C@H]1Cc3cc(OC)c(OC)cc31)CC2" ?
Response given: F

Challenge: Could you kindly confirm the outcome this assay logged for NCC1CCC(C(=O)O)CC1 (stereo unspecified) ?
Response given: F

Challenge: Could you kindly confirm the outcome this assay logged for "CN(C)CCN(Cc1ccc(Cl)cc1)c1ccccn1" ?
Response given: F

Challenge: Could you kindly confirm the outcome this assay logged for "O=C(O)c1nc(=O)[nH]c(=O)[nH]1" ?
Response given: F

Challenge: Could you kindly confirm the outcome this assay logged for CCCCC(C=O)NC(=O)C(CC(C)C)NC(=O)OCc1ccccc1 (stereo unspecified) ?
Response given: F

Challenge: Could you kindly confirm the outcome this assay logged for O=C1C(CCC(O)c2ccc(F)cc2)C(c2ccc(O)cc2)N1c1ccc(F)cc1 (stereo unspecified) ?
Response given: F

Challenge: Could you kindly confirm the outcome this assay logged for N#CC(c1ccc(Cl)cc1)c1c(Cl)cc(-n2ncc(=O)[nH]c2=O)cc1Cl (stereo unspecified) ?
Response given: T

* * *

- EXPERIMENT_SUMMARY: qHTS of pediatric cancer cell lines to identify multiple opportunities for drug repurposing: Confirmatory screen for TC32 cells (AID 1347118);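 note: cells exposed to compound for 48 h before the read; nearly all actives have a fitted effect of over 65% in size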
- CONDITION_DESCRIPTION: TC32 Ewing sarcoma cells viability qHTS; series mostly up to 45.9 µM
Results filed as inconclusive are left out. Active and inactive are the calls of the source. Calls follow the shape of the dose curve; as a rule, active = well fitted cell-killing curve with a large enough effect; inconclusive = small, poorly fitted or top-dose-only effect; inactive = no such curve, though single readings can be large or run the other way.
Entry note: the call must match one of active, inactive

Challenge: Could you kindly confirm the outcome this assay logged for "C=C1[C@H](n2cnc3c(=O)[nH]c(N)nc32)C[C@H](O)[C@H]1CO" ?
Response given: active

Challenge: Could you kindly confirm the outcome this assay logged for "CN[C@@H]1CN(c2ccc3c(=O)c(C(=O)O)cn(-c4nccs4)c3n2)C[C@@H]1OC" ?
Response given: active

Challenge: Could you kindly confirm the outcome this assay logged for "C[C@@]1(c2cc(-c3cncnc3)c(F)cc2F)CCSC(N)=N1" ?
Response given: active

Challenge: Could you kindly confirm the outcome this assay logged for "Nc1ccn([C@@H]2O[C@H](CO)[C@@H](O)[C@H]2O)c(=O)n1" ?
Response given: active

Challenge: Could you kindly confirm the outcome this assay logged for "CC[C@]1(O)C[C@H]2CN(CCC3=c4ccccc4=N[C]3[C@@](C(=O)OC)(c3cc4c(cc3OC)N(C)[C@H]3[C@@](O)(C(N)=O)[C@H](O)[C@]5(CC)C=CCN6CC[C@]43[C@@H]65)C2)C1" ?
Response given: active

Challenge: Could you kindly confirm the outcome this assay logged for "CC1=C[C@@H]2[C@@H]([C@@H](O)C[C@@]3(C)[C@H]2C[C@@H](C)[C@]3(O)C(=O)CO)[C@@]2(C)Cc3cnn(-c4ccccc4)c3C=C12" ?
Response given: active

Challenge: Could you kindly confirm the outcome this assay logged for "CCN(CCO)CCCOc1ccc2c(Nc3cc(CC(=O)Nc4cccc(F)c4)[nH]n3)ncnc2c1" ?
Response given: active

Challenge: Could you kindly confirm the outcome this assay logged for "COc1ccc(-c2ccc3ncc4c(c3c2)n(-c2ccc(N3CCNCC3)c(C(F)(F)F)c2)c(=O)n4C)cn1" ?
Response given: active

Challenge: Could you kindly confirm the outcome this assay logged for "CSc1cccc(Nc2ncc3cc(-c4c(Cl)cccc4Cl)c(=O)n(C)c3n2)c1" ?
Response given: active

Challenge: Could you kindly confirm the outcome this assay logged for "NC(N)=Nc1nc(CSCCC(N)=NS(N)(=O)=O)cs1" ?
Response given: inactive

Challenge: Could you kindly confirm the outcome this assay logged for "CC(C)(C)c1[nH]cnc1C=c1[nH]c(=O)c(=Cc2ccccc2)[nH]c1=O" ?
Response given: active

Challenge: Could you kindly confirm the outcome this assay logged for "Cc1ccccc1-n1c(Cn2nc(-c3cccc(O)c3)c3c(N)ncnc32)nc2cccc(C)c2c1=O" ?
Response given: inactive

Challenge: Could you kindly confirm the outcome this assay logged for "O=C(CC12CC3CC(CC(C3)C1)C2)Nc1cccc2nc(NCCNCCO)ccc12" ?
Response given: active

Challenge: Could you kindly confirm the outcome this assay logged for "Cc1ccc(C(=O)N(CCCN)[C@@H](c2oc3cc(Cl)ccc3c(=O)c2Cc2ccccc2)C(C)C)cc1" ?
Response given: active

Challenge: Could you kindly confirm the outcome this assay logged for "Cc1ccc(S(=O)(=O)Nc2nc3ccccc3nc2Nc2ccc3nsnc3c2)cc1" ?
Response given: active

Challenge: Could you kindly confirm the outcome this assay logged for "CO[C@H]1/C=C\O[C@@]2(C)Oc3c(C)c(O)c4c(O)c(c(C=NN5CCN(C6CCCC6)CC5)c(O)c4c3C2=O)NC(=O)C(C)=CC=C[C@H](C)[C@H](O)[C@@H](C)[C@@H](O)[C@@H](C)[C@H](OC(C)=O)[C@H]1C" ?
Response given: active

Challenge: Could you kindly confirm the outcome this assay logged for "CC[C@H](NC(=O)[C@H](C)NC)C(=O)N1C[C@@H](O)C[C@H]1Cc1c(-c2[nH]c3cc(F)ccc3c2C[C@H]2C[C@H](O)CN2C(=O)[C@H](CC)NC(=O)[C@H](C)NC)[nH]c2cc(F)ccc12" ?
Response given: active

Challenge: Could you kindly confirm the outcome this assay logged for CCC(c1ccc(O)cc1)C(CC)c1ccc(O)cc1 (stereo unspecified) ?
Response given: active

Challenge: Could you kindly confirm the outcome this assay logged for "C[C@@]1(C(=O)Nc2ccc(F)nc2)CCCN1c1nc(Nc2cc(C3CC3)[nH]n2)c2cccn2n1" ?
Response given: active

Challenge: Could you kindly confirm the outcome this assay logged for CC1=C(CC(=O)O)c2cc(F)ccc2C1=Cc1ccc(S(C)=O)cc1 (stereo unspecified) ?
Response given: inactive

Challenge: Could you kindly confirm the outcome this assay logged for "CCC[C@H](Nc1nc(-c2ccc(NC(=O)NCC)c(OC)c2)ncc1C)c1cccnc1" ?
Response given: active

Challenge: Could you kindly confirm the outcome this assay logged for "COc1cc2nccc(Oc3ccc(NC(=O)Nc4cc(C)on4)c(Cl)c3)c2cc1OC" ?
Response given: active

Challenge: Could you kindly confirm the outcome this assay logged for "Nc1ccc(-c2ccc3ncc4ccc(=O)n(-c5cccc(C(F)(F)F)c5)c4c3c2)cn1" ?
Response given: active

Challenge: Could you kindly confirm the outcome this assay logged for "CN(C)CC[C@H](CSc1ccccc1)Nc1ccc(S(=O)(=O)NC(=O)c2ccc(N3CCN(Cc4ccccc4-c4ccc(Cl)cc4)CC3)cc2)cc1[N+](=O)[O-]" ?
Response given: active

Challenge: Could you kindly confirm the outcome this assay logged for CCOC(=O)[C@H](CCc1ccccc1)N[C@@H](C)C(=O)N1CCCC1C(=O)O (stereo partly specified) ?
Response given: active

Challenge: Could you kindly confirm the outcome this assay logged for "COc1ccc2c(c1)c(C1=C(c3c[nH]c4ccccc34)C(=O)NC1=O)cn2CCCN(C)C" ?
Response given: active
